Values were extracted from patent US12662490B2.

Target: UniProt Q99685
Test: 2-AG assay (MAGL inhibitory activity; hydrolysis of 2-arachidonoylglycerol to arachidonic acid followed by mass spectrometry)
Format: biochemical
Settings: 15 min preincubation at RT, 8 μM 2-arachidonoylglycerol, 30 min at RT, RapidFire MS readout
Protocol: Compounds were profiled for MAGL inhibitory activity by determining the enzymatic activity by following the hydrolysis of the natural substrate 2-arachidonoylglycerol (2-AG) resulting in arachidonic acid, which can be followed by mass spectrometry. […] The 2-AG assay was carried out in 384 well assay plates (PP, Greiner Cat #784201) in a total volume of 20 μL. […] The activity of the compounds was calculated based on the ratio of intensities [arachidonic acid/d8-arachidonic acid].
experimental endpoint: IC50 (nM)

>  <compound>
N#Cc1cc(-c2cc(F)cc(C(=O)N3CCN4C[C@@H](c5cc(Cl)c[nH]c5=O)OC[C@@H]4C3)c2Cl)c[nH]1

>  <readout units>
nM

>  <IC50>
13.5

$$$$

(A) COc1cccc(C(=O)N2CCN3CC(c4ccc(F)c(-c5cnco5)c4)OC[C@@H]3C2)c1Cl (stereo partly drawn)
(B) COc1cccc(C(=O)N2CCN3C[C@@](O)(c4cc(Cl)cc(-c5cnco5)c4)OC[C@@H]3C2)c1Cl
Please indicate which has the smaller reported IC50: A , or B . // return label of chosen record
A
(A: 363 nM, B: 769 nM)

###

Target: MAGL (Homo sapiens)
Sequence (Q99685 1-303): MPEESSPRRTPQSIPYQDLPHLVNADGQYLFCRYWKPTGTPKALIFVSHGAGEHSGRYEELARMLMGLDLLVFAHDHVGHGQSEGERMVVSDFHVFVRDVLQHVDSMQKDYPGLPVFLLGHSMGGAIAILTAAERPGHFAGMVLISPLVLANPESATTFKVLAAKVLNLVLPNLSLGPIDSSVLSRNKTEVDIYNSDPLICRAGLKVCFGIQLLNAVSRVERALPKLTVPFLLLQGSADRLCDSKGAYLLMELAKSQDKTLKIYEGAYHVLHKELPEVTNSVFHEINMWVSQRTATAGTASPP
experimental endpoint: IC50 (nM)

Use these answered entries as a reference point.
>  <compound>
COc1cccc(C(=O)N2CCN3C[C@H](c4cc(Cl)c(Cl)cn4)OC[C@H]3C2)c1Cl (single isomer, unassigned)

>  <experimental endpoint>
IC50

>  <readout units>
nM

>  <value observed>
531

$$$$
>  <compound>
COc1cccc(C(=O)N2CCN3C[C@H](c4cc(C)c(Cl)cn4)OC[C@@H]3C2)c1Cl

>  <experimental endpoint>
IC50

>  <readout units>
nM

>  <value observed>
333

$$$$
>  <compound>
O=C(c1cccc(-c2cn[nH]c2C(F)(F)F)c1)N1CCN2C[C@@H](c3ccc(F)c(Cl)c3)OC[C@@H]2C1

>  <experimental endpoint>
IC50

>  <readout units>
nM

>  <value observed>
28.2

$$$$
>  <compound>
COc1ccccc1-c1cccc(C(=O)N2CCN3C[C@@H](c4ccc(F)c(Cl)c4)OC[C@@H]3C2)c1Cl

>  <experimental endpoint>
IC50

>  <readout units>
nM

>  <value observed>
26.3

$$$$
>  <compound>
O=C(c1cccc(-c2cn[nH]c2C(F)(F)F)c1F)N1CCN2C[C@@H](c3ccc(F)c(Cl)c3)OC[C@@H]2C1

>  <experimental endpoint>
IC50

>  <readout units>
nM

>  <value observed>
20.7

$$$$
>  <compound>
COc1cccc(C(=O)N2CCN3C[C@@H](c4ccc(F)c(-c5ccccc5)c4)OC[C@@H]3C2)c1Cl

>  <experimental endpoint>
IC50

>  <readout units>
nM

>  <value observed>
259

$$$$

(a) COc1cccc(C(=O)N2CCN3C[C@@H](c4sc(C)nc4C)OC[C@@H]3C2)c1Cl (single isomer, unassigned)
(b) O=C(c1cccc(-c2cccnn2)c1Cl)N1CCN2C[C@@H](c3ccc(F)c(Cl)c3)OC[C@@H]2C1
(c) O=C(c1cccc(N2CC(O)C2)c1Cl)N1CCN2C[C@@H](c3ccc(F)c(Cl)c3)OC[C@@H]2C1
Rank items: key IC50, increasing. State the ranking by listing the labels in the requested order.
c, b, a

(a) O=C(c1cccc(N2CC3(COC3)C2)c1Cl)N1CCN2C[C@@H](c3ccc(F)c(Cl)c3)OC[C@@H]2C1
(b) O=C(c1cccc(-c2c[nH]nc2F)c1Cl)N1CCN2C[C@H](c3ccc(F)c(Cl)c3)OC[C@@H]2C1
(c) CC#Cc1cc([C@@H]2CN3CCN(C(=O)c4cccc(OC)c4Cl)C[C@H]3CO2)ccc1F
(d) COc1cccc(C(=O)N2CCN3C[C@@](O)(c4ccc(C(F)(F)F)nc4C)OC[C@@H]3C2)c1Cl
(e) COc1cccc(C(=O)N2CCN3C[C@@H](c4cc(C(F)(F)F)c(Cl)cn4)OC[C@@H]3C2)c1Cl
Rank items: key IC50, increasing. State the ranking by listing the labels in the requested order.
e, a, c, b, d
(e: 30.7 nM, a: 48.6 nM, c: 238 nM, b: 418 nM, d: 705 nM)

(a) COc1cccc(C(=O)N2CCN3C=C(c4nc5ccccc5s4)OCC3C2)c1Cl (stereo not shown)
(b) O=C(c1cccc(-c2cn[nH]c2)c1Cl)N1CCN2C[C@@](O)(c3ccc(C(F)(F)F)nc3)OC[C@@H]2C1
Which is greater in IC50, the first item a or the second item b ? // return label of chosen record
a
(a: 983 nM, b: 15.9 nM)
